Measured values drawn from ChEMBL document CHEMBL1909046 for this set.

- target.desc: Cytochrome P450 2C9 (Homo sapiens); also: in other assays of this panel Not Active means under 50% inhibition at 10 µM
- Sequence (P11712 whole entry): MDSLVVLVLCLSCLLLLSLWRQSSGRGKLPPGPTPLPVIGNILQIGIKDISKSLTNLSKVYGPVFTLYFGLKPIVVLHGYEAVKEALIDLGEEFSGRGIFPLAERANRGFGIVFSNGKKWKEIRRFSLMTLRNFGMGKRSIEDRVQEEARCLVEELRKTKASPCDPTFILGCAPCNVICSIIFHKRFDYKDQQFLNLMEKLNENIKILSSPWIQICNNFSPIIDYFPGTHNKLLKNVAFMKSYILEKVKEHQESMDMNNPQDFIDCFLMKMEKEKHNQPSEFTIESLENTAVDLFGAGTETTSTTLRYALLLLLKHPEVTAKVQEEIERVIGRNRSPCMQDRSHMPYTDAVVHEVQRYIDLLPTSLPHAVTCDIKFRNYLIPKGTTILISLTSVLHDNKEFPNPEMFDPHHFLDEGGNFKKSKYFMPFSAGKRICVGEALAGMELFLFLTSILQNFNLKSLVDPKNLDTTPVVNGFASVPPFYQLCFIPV
- condition.description: bti-tn-5b1-4
experimental.endpoint: Ki

- compound: "N=C(N)NC(=O)Cc1c(Cl)cccc1Cl [GUANFACINE]"
  Ki: "Not Active"
- compound: "CC(=O)[C@H]1[C@H](C#N)C[C@H]2[C@@H]3CC=C4C[C@@H](O)CC[C@]4(C)[C@H]3CC[C@@]21C [PREGNENOLONE CARBONITRILE]"
  Ki: "Not Active"
- compound: "CC(=O)O[C@H]1C(=O)[C@@]2(C)[C@H]([C@H](OC(=O)c3ccccc3)[C@]3(O)C[C@H](OC(=O)[C@H](O)[C@@H](NC(=O)c4ccccc4)c4ccccc4)C(C)=C1C3(C)C)[C@]1(OC(C)=O)CO[C@@H]1C[C@@H]2O [PACLITAXEL]"
  Ki: "Not Active"
- compound: "Cc1ccc(NC(=O)c2ccc(CN3CCN(C)CC3)cc2)cc1Nc1nccc(-c2cccnc2)n1 [IMATINIB]"
  Ki: "Not Active"
- compound: "O=C1O[C@H]([C@@H](O)CO)C(O)=C1O [ASCORBIC ACID]"
  Ki: "Not Active"
- compound: "CN/C(=N\\CCSCc1nc[nH]c1C)NC#N [CIMETIDINE]"
  Ki: "Not Active"
- compound: "C#CC1(O)CC[C@H]2[C@@H]3CCC4=CC(=O)CC[C@@H]4[C@H]3CC[C@@]21CC (some centres not stated) [NORGESTREL]"
  Ki: "Not Active"
- compound: "CC(C)NCC(O)c1ccc(NS(C)(=O)=O)cc1 (configuration not stated) [SOTALOL]"
  Ki: "Not Active"

Hi, could you look up Ki for each item in my list?
1. Fc1ccc(C(c2ccc(F)cc2)N2CCN(C/C=C/c3ccccc3)CC2)cc1 [FLUNARIZINE]
2. NNc1nncc2ccccc12 [HYDRALAZINE]
3. C[n+]1ccc(-c2cc[n+](C)cc2)cc1.[Cl-].[Cl-] [PARAQUAT DICHLORIDE]
4. COC(=O)Nc1nc2ccc([S+]([O-])c3ccccc3)cc2[nH]1 (configuration not stated) [OXFENDAZOLE]
5. Oc1cccc(O)c1O [PYROGALLOL]
6. CC(C(=O)O)c1ccc2oc(-c3ccc(Cl)cc3)nc2c1 (configuration not stated) [BENOXAPROFEN]
7. NC1CCN(c2nc3c(cc2F)c(=O)c(C(=O)O)cn3-c2ccc(F)cc2F)C1 (configuration not stated) [TOSUFLOXACIN]
8. CCN(CC)CCOc1ccc(/C(=C(/Cl)c2ccccc2)c2ccccc2)cc1 [ENCLOMIPHENE]

**A:**
["Not Active", "Not Active", "Not Active", "Not Active", "Not Active", "Not Active", "Not Active", "Not Active"]

**Q:** Please provide the recorded Ki for C[C@]12C=CC(=O)C=C1CC[C@@H]1[C@@H]2[C@@H](O)C[C@@]2(C)[C@H]1CC[C@]2(O)C(=O)CO [PREDNISOLONE] , tested on Cytochrome P450 2C9 (Homo sapiens). Also: in other assays of this panel Not Active means under 50% inhibition at 10 µM.
**A:** Not Active

* * *

- target.desc: Sodium-dependent noradrenaline transporter (Homo sapiens)
- Sequence (P23975 whole entry): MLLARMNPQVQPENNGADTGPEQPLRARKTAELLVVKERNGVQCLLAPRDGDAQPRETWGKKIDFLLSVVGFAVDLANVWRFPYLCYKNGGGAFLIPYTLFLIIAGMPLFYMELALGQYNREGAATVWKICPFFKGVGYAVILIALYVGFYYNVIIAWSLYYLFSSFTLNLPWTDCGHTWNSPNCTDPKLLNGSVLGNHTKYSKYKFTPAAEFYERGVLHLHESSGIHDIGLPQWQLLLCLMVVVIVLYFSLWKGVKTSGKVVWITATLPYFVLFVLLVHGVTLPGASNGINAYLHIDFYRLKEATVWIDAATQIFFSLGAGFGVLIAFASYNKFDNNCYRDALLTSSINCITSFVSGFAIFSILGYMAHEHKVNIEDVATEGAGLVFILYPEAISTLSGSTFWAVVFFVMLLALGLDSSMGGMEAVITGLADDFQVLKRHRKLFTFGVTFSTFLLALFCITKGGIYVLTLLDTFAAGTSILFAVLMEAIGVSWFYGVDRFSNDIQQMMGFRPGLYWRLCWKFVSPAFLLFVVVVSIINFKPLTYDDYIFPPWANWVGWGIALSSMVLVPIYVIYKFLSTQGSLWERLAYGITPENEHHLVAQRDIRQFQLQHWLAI
- protocol.text: DRUGMATRIX: Norepinephrine Transporter radioligand binding (ligand: [125I] RTI-55)
- Assay type: cell membranes, MDCK, Membrane
- condition.description: Not Active = under 50% inhibition at 10 µM; read-out: IC50
experimental.endpoint: pIC50
Give bare numbers, as −log10 of the molar value.

Working through the 2 compounds below one at a time, give pIC50 for each.
1. Fc1ccc(C(c2ccc(F)cc2)N2CCN(C/C=C/c3ccccc3)CC2)cc1
2. CN(C/C=C/C#CC(C)(C)C)Cc1cccc2ccccc12

**A:**
1: 5.87; 2: 5.38

Look up pIC50 for the entries below, preserving their order.
1. CC(C)c1cccc(C(C)C)c1O
2. CN(C)CC[C@@H](c1ccc(Cl)cc1)c1ccccn1

**A:**
1: 5.03; 2: 5.30

* * *

- target.desc: Alpha-2C adrenergic receptor (Homo sapiens)
- Sequence (P18825 whole entry): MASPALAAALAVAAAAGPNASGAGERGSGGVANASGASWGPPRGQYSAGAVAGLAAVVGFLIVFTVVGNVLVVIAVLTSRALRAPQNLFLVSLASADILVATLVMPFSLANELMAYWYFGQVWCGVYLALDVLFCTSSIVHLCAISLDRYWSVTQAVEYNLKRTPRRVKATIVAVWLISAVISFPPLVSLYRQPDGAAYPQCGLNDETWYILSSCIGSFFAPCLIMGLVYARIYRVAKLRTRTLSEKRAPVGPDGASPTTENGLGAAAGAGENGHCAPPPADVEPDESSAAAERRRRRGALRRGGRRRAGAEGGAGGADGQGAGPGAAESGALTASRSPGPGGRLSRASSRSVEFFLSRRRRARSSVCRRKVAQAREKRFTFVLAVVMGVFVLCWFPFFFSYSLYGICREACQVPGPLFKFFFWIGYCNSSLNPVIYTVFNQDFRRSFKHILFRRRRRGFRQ
- protocol.text: DRUGMATRIX: Adrenergic Alpha-2C radioligand binding (ligand: [3H] MK-912)
- Type: cell membranes, Sf9, Membrane
- condition.description: sf9
experimental.endpoint: IC50

Completed entries (count: 5):
- substance: "GENTAMICIN"
  IC50: "Not Active"
- substance: "MANGANESE CHLORIDE ANHYDROUS"
  IC50: "Not Active"
- substance: "NYSTATIN"
  IC50: "Not Active"
- substance: "GRAMICIDIN"
  IC50: "Not Active"
- substance: "AURANOFIN"
  IC50: "Not Active"

State recorded IC50 for all listed substances.
1. SODIUM ORTHOVANAD
2. GADOPENTETATE DIMEGLUMINE

**A:**
Not Active
Not Active

* * *

- protocol.text: DRUGMATRIX: Glutamate, Kainate radioligand binding (ligand: [3H] Kainic acid)
- Format: cell membranes, Rattus norvegicus, Wistar, Brain, Membrane
- condition.description: Not Active = under 50% inhibition at 10 µM
experimental.endpoint: IC50

Known results for molecules:
- molecule: "O=c1cnn([C@@H]2O[C@H](CO)[C@@H](O)[C@H]2O)c(=O)[nH]1"
  data.value: "Not Active"
- molecule: "C[C@@H]1CC[C@@]2(OC1)O[C@H]1[C@@H](O)[C@H]3[C@@H]4CC[C@H]5C[C@@H](O[C@@H]6O[C@H](CO)[C@H](O[C@@H]7O[C@H](CO)C(O)[C@H](O[C@@H]8OC[C@@H](O)[C@H](O)[C@H]8O)[C@H]7O[C@@H]7O[C@H](CO)[C@H](O)[C@H](O[C@@H]8O[C@H](CO)[C@@H](O)[C@H](O)[C@H]8O)[C@H]7O)[C@H](O)[C@H]6O)[C@H](O)C[C@]5(C)[C@H]4CC[C@]3(C)[C@H]1[C@@H]2C (stereo partly specified)"
  data.value: "Not Active"
- molecule: "Nc1ccn([C@@H]2O[C@H](CO)[C@@H](O)C2(F)F)c(=O)n1"
  data.value: "Not Active"
- molecule: "COc1cc2nc(N3CCN(C(=O)c4ccco4)CC3)nc(N)c2cc1OC"
  data.value: "Not Active"
- molecule: "CC(c1cc2ccccc2s1)N(O)C(N)=O (stereo unspecified)"
  data.value: "Not Active"

Now consider the entry below.
**Q:** Tell me the measured IC50 of `NCCCC(O)(P(=O)(O)O)P(=O)(O)O` , please.
**A:** Not Active

* * *

- target.desc: Progesterone receptor (Bos taurus)
- Sequence (Q690N0 whole entry): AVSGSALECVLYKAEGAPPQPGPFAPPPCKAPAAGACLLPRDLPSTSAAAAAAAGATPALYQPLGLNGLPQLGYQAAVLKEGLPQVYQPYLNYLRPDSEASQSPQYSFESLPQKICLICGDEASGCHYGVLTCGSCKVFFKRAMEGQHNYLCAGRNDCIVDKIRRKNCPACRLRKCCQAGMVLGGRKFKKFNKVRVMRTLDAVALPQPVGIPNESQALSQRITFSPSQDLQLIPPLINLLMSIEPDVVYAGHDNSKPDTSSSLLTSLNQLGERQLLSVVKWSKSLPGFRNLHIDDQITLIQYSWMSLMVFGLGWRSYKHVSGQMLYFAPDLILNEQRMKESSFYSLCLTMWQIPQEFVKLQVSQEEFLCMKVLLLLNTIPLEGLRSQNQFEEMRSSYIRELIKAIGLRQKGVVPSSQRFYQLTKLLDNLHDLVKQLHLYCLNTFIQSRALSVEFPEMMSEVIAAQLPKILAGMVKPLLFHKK
- protocol.text: DRUGMATRIX: Progesterone radioligand binding (ligand: [3H] R-5020)
- Format: tissue-based, Uterus
- condition.description: Not Active = under 50% inhibition at 10 µM
experimental.endpoint: IC50

# example entries with known answers
- compound: "COc1ccc(C(=O)N2CCCC2=O)cc1"
  experimental.endpoint: "IC50"
  data.value: "Not Active"
- compound: "Cc1c(OCC(F)(F)F)ccnc1C[S+]([O-])c1nc2ccccc2[nH]1 (stereo not given)"
  experimental.endpoint: "IC50"
  data.value: "Not Active"
- compound: "Nc1cc(N2CCCCC2)nc(N)[n+]1[O-]"
  experimental.endpoint: "IC50"
  data.value: "Not Active"
- compound: "O=C(c1ccccc1C(F)(F)F)N1CCC(Cc2ccccc2)CC1"
  experimental.endpoint: "IC50"
  data.value: "Not Active"

**Q:** Any idea what IC50 was measured for `CN(C)CC[C@@H](c1ccc(Cl)cc1)c1ccccn1` ?
**A:** Not Active
